Reported TGI values for the following molecules.
- Test system: DMS 114 small cell lung
- assay_procedure: NCI tumour cell line growth inhibition, 48 h

>  <molecule>
CCOC(=O)C(=O)C1C(=O)Nc2ccccc21 (stereo not given)

>  <TGI>
> 100 µM

$$$$
>  <molecule>
COc1ccc(C[C@H](N)C(=O)N2C[C@H](CO)C[C@H](n3cnc4c(N(C)C)ncnc43)C2)cc1

>  <TGI>
> 100 µM

$$$$
>  <molecule>
COc1cccc2c1C1(O)C2CCCC12OCCCO2 (stereo not given)

>  <TGI>
> 100 µM

$$$$

With those in mind, consider the next molecule.
Query string: What value of TGI has been reported for the following molecule? COc1ccc(C[C@H](N)C(=O)N2C[C@H](CO)C[C@H](n3ccc(=O)[nH]c3=O)C2)cc1
Result string: > 100 µM

###

- System: MALME-3M melanoma
- assay_procedure: NCI tumour cell line growth inhibition, 48 h
property_label: TGI (µM)
Expressed in µM, but write only the number.

Answered cases to consult:
>  <compound>
Cc1ccc2c[c]1[Hg][CH2]COS2(=O)=O

>  <result_unit>
µM

>  <TGI>
34

$$$$
>  <compound>
CN(C)C(=S)NN=C(c1ccccn1)c1ccccn1

>  <result_unit>
µM

>  <TGI>
0.503

$$$$
>  <compound>
O=Nc1c(-c2cccc([N+](=O)[O-])c2)nc2cnccn12

>  <result_unit>
µM

>  <TGI>
56.5

$$$$
>  <compound>
COc1ccccc1NC(=S)N/N=C(/C)c1ccccn1

>  <result_unit>
µM

>  <TGI>
16.7

$$$$
>  <compound>
O=C1c2ccccc2-c2c1c1ccc([N+](=O)[O-])cc1c(=O)n2CCNCCCNCCn1c2c(c3ccc([N+](=O)[O-])cc3c1=O)C(=O)c1ccccc1-2

>  <result_unit>
µM

>  <TGI>
30.8

$$$$

Query string: What value of TGI has been reported for the following compound? CC1CC[C@@]2(OC1)O[C@H]1C[C@H]3[C@@H]4CC[C@H]5C[C@@H](OC6OC(CO)C(OC7OC(CO)C(OC8OC(CO)C(O)C(OC9OC(C)C(OC%10OC(C)C(O)C(O)C%10O)C(O)C9O)C8OC8OCC(O)C(O)C8O)C(O)C7O)C(O)C6O)CC[C@]5(C)[C@H]4CC(=O)[C@]3(C)[C@H]1[C@@H]2C (some centres not stated)
Result string: 41.3

###

- System: SK-MEL-2 melanoma
- assay_procedure: NCI tumour cell line growth inhibition, 48 h; in the data active = GI50 below about 0.43 µM; inactive = the rest
Use one of these outcomes when replying: T for active, F for inactive

Query string: Returns: the outcome recorded for CC(=N\O)/C(C)=N/O.CC(=N\O)/C(C)=N/O.CC(=N\O)/C(C)=N/O.CC(=N\O)/C(C)=N/O.[Cu].[Cu] in this assay.
Result string: F

###

- Tested on: HCC-2998 colon
- assay_procedure: NCI tumour cell line growth inhibition, 48 h
Would you please tag the item rule met when its TGI is 30 µM or above, and rule not met when it is below?

Here's what some known entries look like.
>  <molecule>
CS(=O)(=O)OCCN1CCN(C(=O)c2cccc3c(Nc4ccc(S(N)(=O)=O)cc4)c4ccccc4nc23)CC1

>  <target_of_assay>
HCC-2998 colon

>  <cat>
rule met

$$$$
>  <molecule>
O=C(Nc1c(Cl)cc([N+](=O)[O-])cc1Cl)C(=O)C1C(=O)NC(=S)NC1=O

>  <target_of_assay>
HCC-2998 colon

>  <cat>
rule met

$$$$
>  <molecule>
C=CC(C)(C)N[C@@H](C(=O)N1CCC[C@H]1c1nc(-c2nc(C(=O)OCC=C(C)C)c(C)o2)c(C)o1)C(C)C

>  <target_of_assay>
HCC-2998 colon

>  <cat>
rule met

$$$$
>  <molecule>
Cc1ccc(C)c(COCCOCn2cc(Br)c(N)nc2=O)c1

>  <target_of_assay>
HCC-2998 colon

>  <cat>
rule met

$$$$
>  <molecule>
COc1ccc(C(O)c2cc3c(N)c(C(=O)Nc4cccc(Cl)c4C)sc3nc2C)cc1 (centres undefined)

>  <target_of_assay>
HCC-2998 colon

>  <cat>
rule not met

$$$$
>  <molecule>
O=c1c2ccccc2n2nnc3ccc(NCCCNCCNCCCNc4ccc5nnn6c7ccccc7c(=O)c4c56)c1c32

>  <target_of_assay>
HCC-2998 colon

>  <cat>
rule not met

$$$$
>  <molecule>
[N-]=[N+]=NC1CC(n2cc(COCC(F)(F)F)c(=O)[nH]c2=O)OC1CO (centres undefined)

>  <target_of_assay>
HCC-2998 colon

>  <cat>
rule met

$$$$
>  <molecule>
O=C(NCCCCNCCCNC(=O)c1ccccc1)c1ccccc1

>  <target_of_assay>
HCC-2998 colon

>  <cat>
rule met

$$$$
>  <molecule>
Cc1cccc2nc3cccc(C(=O)NCCC[N+](C)(CCCNC(=O)c4cccc5nc6cccc(C)c6nc45)Cc4c([N+](=O)[O-])ncn4C)c3nc12

>  <target_of_assay>
HCC-2998 colon

>  <cat>
rule met

$$$$
>  <molecule>
COCN1CCN=c2c1c1c3c(c4ccccc4n23)CCC1

>  <target_of_assay>
HCC-2998 colon

>  <cat>
rule met

$$$$

Query string: Does the molecule Cc1ccc2c[c]1[Hg][CH2]COS2(=O)=O have recorded TGI that is 30 µM or more?
Result string: rule met

Query string: Same read-out for COc1cc([C@@H]2c3cc4c(cc3C(Br)[C@H]3COC(=O)[C@H]23)OCO4)cc(OC)c1OC (some centres undefined) ?
Result string: rule not met

Query string: Same read-out for CCN(CC)c1ccc(N=C2C=C(C(=O)Nc3ccc(S(C)(=O)=O)cc3)C(=O)c3ccccc32)c(C)c1 ?
Result string: rule met

Query string: Same read-out for CCc1ccc(-c2ccc(=O)n(-c3ccc(S(N)(=O)=O)cc3)n2)cc1 ?
Result string: rule met

Query string: Same read-out for CCCCCCCCCCCCCC[P+](CCCCCC)(CCCCCC)CCCCCC ?
Result string: rule not met

Query string: Same read-out for OCC(O)C1OC2CC1Nc1ccccc1N2 (centres undefined) ?
Result string: rule met

Query string: Same read-out for CC(C)(C)n1c(=O)n(C(=O)C(Cl)(Cl)Cl)n(C(=O)C(Cl)(Cl)Cl)c1=O ?
Result string: rule met

Query string: Same read-out for O=C1c2ccccc2-c2c1c1ccc([N+](=O)[O-])cc1c(=O)n2CCNCCCNCCn1c2c(c3ccc([N+](=O)[O-])cc3c1=O)C(=O)c1ccccc1-2 ?
Result string: rule not met
